# Test system: Plasmodium berghei
# assay overview: Screen against P. berghei liver stage (PbLuc), transformed with Luciferase, at 10uM
# Type: functional, HepG2
# assay conditions: tested at 10 uM
Out of some 69,000 compounds screened, about 8,600 (12%) showed an effect of 50% or more. What follows is part of a selection rich in strong results, with near analogues and random picks from the rest.
metric name: INHIBITION (%)
Kindly answer with a numeric value in %, unit omitted.

Consider the following illustrative entries.
{"columns": ["compound", "recorded result"],
 "data": [
  ["CS(=O)(=O)Cc1ccc(CNC(=O)N2CCC(C(N)=O)C2)cc1 (stereo unspecified)", 2.97],
  ["CSc1ccc(Cl)c(C(=O)N2CCCC(CNS(C)(=O)=O)C2)c1 (stereo unspecified)", 41.4]
]}

// fetch Plasmodium berghei INHIBITION for CCc1nc2n(n1)CC(NCC(=O)Nc1cc(C(C)(C)C)no1)CC2 (stereo unspecified)
-13.5

Follow-up item: CCc1ccc(CN(C/C=C/c2ccccc2)CCOC)nc1
52.9
